# Test system: Escherichia coli TOP10
# Run Description: shrunken log2 fold change of peptide-encoding DNA abundance (4.5 h post-induction vs induction); higher = less antimicrobial activity (less host growth inhibition)
# Condition Notes: time post-induction: 4.5 h; library: site-saturation at positions 5, 18, 19, 20
Observable: shrunken log2 fold change
Would you mind answering with just the numeric figure?

RRIRCRPPRLPRPRPRPYDLPRP
-0.325
RRIRSRPPRLPRPRPRPNESPRP
-0.153
RRIRDRPPRLPRPRPRPILPPRP
0.0106

Query (sequence): RRIRERPPRLPRPRPRPDIPPRP ; field requested: shrunken log2 fold change
-0.366

Item under review: RRIRSRPPRLPRPRPRPYGAPRP . Reported shrunken log2 fold change?
-0.318

What value of shrunken log2 fold change has been reported for the following sequence? RRIRSRPPRLPRPRPRPVHQPRP
0.0888

Name the recorded shrunken log2 fold change for RRIRKRPPRLPRPRPRPMMHPRP .
0.0869

Give its shrunken log2 fold change value. Item: RRIRDRPPRLPRPRPRPCAAPRP
0.704

Query: shrunken log2 fold change; subject: RRIRERPPRLPRPRPRPCHTPRP
-0.0292

Item RRIRIRPPRLPRPRPRPMWHPRP has what recorded shrunken log2 fold change?
-0.176

Fill in the blank: the reported shrunken log2 fold change of RRIRCRPPRLPRPRPRPASWPRP is ____.
0.219

What value of shrunken log2 fold change has been recorded for this entry: RRIRSRPPRLPRPRPRPYNRPRP
-0.267

I am curious: what shrunken log2 fold change value has been reported for RRIRLRPPRLPRPRPRPEWRPRP ?
-0.0482

Quick check: shrunken log2 fold change of RRIRHRPPRLPRPRPRPFESPRP ?
-0.00822

Give its shrunken log2 fold change value. Item: RRIRTRPPRLPRPRPRPQICPRP
0.13

Report shrunken log2 fold change for RRIRQRPPRLPRPRPRPKSKPRP please.
-0.123

Dear colleague, I am looking for the recorded shrunken log2 fold change of the following sequence: RRIRRRPPRLPRPRPRPQRMPRP
0.13

----------
# Tested on: Escherichia coli TOP10
# Run Description: shrunken log2 fold change of peptide-encoding DNA abundance (4.5 h post-induction vs induction); higher = less antimicrobial activity (less host growth inhibition)
# Condition Notes: time post-induction: 4.5 h; library: site-saturation at positions 5, 18, 19, 20
Quick list: shrunken log2 fold change per entry.
Keep it simple and answer with nothing but the number.

RRIRGRPPRLPRPRPRPMKKPRP
1.17
RRIRARPPRLPRPRPRPKIEPRP
0.173

Which shrunken log2 fold change value belongs to RRIRERPPRLPRPRPRPHYSPRP ?
-0.16

Would you mind telling me what shrunken log2 fold change value was observed for RRIRCRPPRLPRPRPRPMQLPRP ?
-0.239

Please look up its shrunken log2 fold change: RRIRPRPPRLPRPRPRPQHTPRP
0.769

----------
Each entry below carries its recorded shrunken log2 fold change.
# Test system: Escherichia coli TOP10
# Run Description: shrunken log2 fold change of peptide-encoding DNA abundance (4.5 h post-induction vs induction); higher = less antimicrobial activity (less host growth inhibition)
# Condition Notes: time post-induction: 4.5 h; library: site-saturation at positions 5, 18, 19, 20
Would you mind answering with just the numeric figure?

RRIRFRPPRLPRPRPRPDVCPRP
-0.1
RRIRVRPPRLPRPRPRPNMNPRP
-0.745
RRIRVRPPRLPRPRPRPVANPRP
-0.0212
RRIRQRPPRLPRPRPRPQFRPRP
-0.0194
RRIRVRPPRLPRPRPRPMRNPRP
-0.0233
RRIRARPPRLPRPRPRPFFNPRP
-0.0671
RRIRFRPPRLPRPRPRPVSIPRP
0.0109
RRIRNRPPRLPRPRPRPSKLPRP
-0.582
RRIRARPPRLPRPRPRPPGNPRP
0.574
RRIRTRPPRLPRPRPRPADIPRP
-0.0781

Name the recorded shrunken log2 fold change for RRIRMRPPRLPRPRPRPNRCPRP .
0.172

Which measured shrunken log2 fold change value corresponds to RRIRNRPPRLPRPRPRPHDFPRP ?
0.137

----------
This section presents sequences with their documented shrunken log2 fold change values.
# Tested on: Escherichia coli TOP10
# Run Description: shrunken log2 fold change of peptide-encoding DNA abundance (4.5 h post-induction vs induction); higher = less antimicrobial activity (less host growth inhibition)
# Condition Notes: time post-induction: 4.5 h; library: site-saturation at positions 5, 18, 19, 20
# answer = number (no unit)

RRIRQRPPRLPRPRPRPLFWPRP
-0.23
RRIRTRPPRLPRPRPRPFEQPRP
-0.225
RRIRWRPPRLPRPRPRPVRDPRP
0.687

I would be grateful if you could share the reported shrunken log2 fold change for RRIRGRPPRLPRPRPRPGPSPRP .
1.05

State the recorded shrunken log2 fold change for this entry: RRIRRRPPRLPRPRPRPALWPRP
1.02

Query: shrunken log2 fold change; subject: RRIRQRPPRLPRPRPRPTETPRP
0.0687

I would be grateful if you could share the reported shrunken log2 fold change for RRIRSRPPRLPRPRPRPPVEPRP .
-0.0919

Tell me the measured shrunken log2 fold change of RRIRERPPRLPRPRPRPVQDPRP , please.
-0.0228

Which shrunken log2 fold change value is on record for RRIRRRPPRLPRPRPRPYFAPRP ?
0.487

Please report the recorded shrunken log2 fold change for RRIRQRPPRLPRPRPRPYQGPRP .
0.00707

Which shrunken log2 fold change value belongs to RRIRYRPPRLPRPRPRPTPMPRP ?
0.843

Please report the recorded shrunken log2 fold change for RRIRVRPPRLPRPRPRPCGWPRP .
0.302

----------
Recorded shrunken log2 fold change for the following sequences
# Tested on: Escherichia coli TOP10
# Run Description: shrunken log2 fold change of peptide-encoding DNA abundance (4.5 h post-induction vs induction); higher = less antimicrobial activity (less host growth inhibition)
# Condition Notes: time post-induction: 4.5 h; library: site-saturation at positions 5, 18, 19, 20
Give only the figure.

A selection of reference data follows.
RRIRFRPPRLPRPRPRPWRHPRP
0.0222
RRIRRRPPRLPRPRPRPRVDPRP
0.00278

Consider the sequence shown here: RRIRTRPPRLPRPRPRPPEHPRP What is its recorded shrunken log2 fold change?
0.0826

State the recorded shrunken log2 fold change for this entry: RRIRQRPPRLPRPRPRPFQKPRP
-0.173

Look at this sequence and give its reported shrunken log2 fold change. RRIRERPPRLPRPRPRPRKKPRP
-0.111

I'd like to know its shrunken log2 fold change. The sequence in question is RRIRNRPPRLPRPRPRPIWIPRP
-0.0856

Form field: reported shrunken log2 fold change of RRIRARPPRLPRPRPRPYNLPRP
-0.00894

----------
# Test system: Escherichia coli TOP10
# Run Description: shrunken log2 fold change of peptide-encoding DNA abundance (4.5 h post-induction vs induction); higher = less antimicrobial activity (less host growth inhibition)
# Condition Notes: time post-induction: 4.5 h; library: site-saturation at positions 5, 18, 19, 20
Decision: shrunken log2 fold change >= -0.1 yields Criterion met, all other cases yield Criterion not met.

RRIRKRPPRLPRPRPRPSWWPRP
Criterion met
RRIRMRPPRLPRPRPRPVMCPRP
Criterion met

Please tell me: is the sequence RRIRTRPPRLPRPRPRPYKKPRP at or over -0.1 in terms of shrunken log2 fold change?
Criterion not met

Say whether RRIRGRPPRLPRPRPRPKGGPRP shows shrunken log2 fold change of -0.1 or more.
Criterion met

Does RRIRIRPPRLPRPRPRPGQIPRP have a reported shrunken log2 fold change of at least -0.1?
Criterion met

# check: shrunken log2 fold change of RRIRVRPPRLPRPRPRPHKMPRP is greater than or equal to -0.1
Criterion not met

----------
# Tested on: Escherichia coli TOP10;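 note: peptides expressed intracellularly from a pBAD plasmid library in pooled LB shake-flask culture, induced with 0.3% L-arabinose, DNA abundance read by NGS, three biological replicates, DESeq2 with apeglm shrinkage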
# Run Description: shrunken log2 fold change of peptide-encoding DNA abundance (4.5 h post-induction vs induction); higher = less antimicrobial activity (less host growth inhibition)
# Condition Notes: time post-induction: 4.5 h; library: site-saturation at positions 5, 18, 19, 20
Each record here notes measured shrunken log2 fold change.
Returns: the value as a bare number; no unit string appended.

Below are worked cases with known answers.
RRIRPRPPRLPRPRPRPMADPRP
0.131
RRIRQRPPRLPRPRPRPTPIPRP
0.182
RRIRARPPRLPRPRPRPMLGPRP
0.211
RRIRMRPPRLPRPRPRPTSAPRP
0.74
RRIRRRPPRLPRPRPRPAMPPRP
0.396

Item RRIRSRPPRLPRPRPRPWGTPRP has what recorded shrunken log2 fold change?
-0.222

Fill blank: measured shrunken log2 fold change of the sequence RRIRIRPPRLPRPRPRPLQLPRP is ____.
-0.573

Sample RRIRVRPPRLPRPRPRPVKTPRP — what was its shrunken log2 fold change?
-0.11

For RRIRCRPPRLPRPRPRPCHVPRP , what is its reported shrunken log2 fold change?
-0.00144

Recorded shrunken log2 fold change of RRIRNRPPRLPRPRPRPEKTPRP , please.
-0.0226

Name the recorded shrunken log2 fold change for RRIRNRPPRLPRPRPRPIHRPRP .
0.0891

Sample RRIRNRPPRLPRPRPRPCWDPRP — what was its shrunken log2 fold change?
0.125

Please report the recorded shrunken log2 fold change for RRIRMRPPRLPRPRPRPDNLPRP .
-0.205

What value of measured shrunken log2 fold change is listed for RRIRTRPPRLPRPRPRPNSMPRP ?
-0.496

What value of shrunken log2 fold change has been reported for the following sequence? RRIRVRPPRLPRPRPRPQTDPRP
-0.27

Request the reported shrunken log2 fold change associated with RRIRRRPPRLPRPRPRPRVIPRP
0.0591

Requested field: shrunken log2 fold change. Item: RRIRIRPPRLPRPRPRPDIHPRP
-0.587
